Quick reference: polymerase ribozyme fitness (log ratio) of the listed items.
B1: TPR t1 (parent)
chain: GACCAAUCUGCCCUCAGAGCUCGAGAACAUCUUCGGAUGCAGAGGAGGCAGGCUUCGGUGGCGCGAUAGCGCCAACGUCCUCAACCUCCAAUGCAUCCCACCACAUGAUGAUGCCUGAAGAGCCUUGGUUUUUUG

Variants of: B1
protocol-details: polymerase ribozyme fitness, log enrichment relative to wild type (log ratio); higher = more active; in vitro selection for triplet polymerase activity
outcome-measure: polymerase ribozyme fitness (log ratio)

G63A A103U | -6.64
G47A C124U | 0.0616
G60C U109G G120A | -5.9
A46C C62U C86U C97U A111U C124U | -5.27
U7G U32G C98A | -5.15
G61A G128C | -1.93
G10U A46U C73U C88A U133A | -2.31
C28G U32C | -2.94
C4A U9A A43U C56A A83C U126A | -4.76
C13A C56G C89A A90U | -3.98
C20A G69U | -1.94
U7A U33A | -3.98
